B1: Gamma-crystallin S, residues 96 to 176; numbered along this chain, P22914 (parent)
chain: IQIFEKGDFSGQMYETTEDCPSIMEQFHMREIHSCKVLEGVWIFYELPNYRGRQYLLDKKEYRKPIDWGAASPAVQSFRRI

Variants of: B1
measurementDescription: abundance fitness (aPCA) (normalised: wild type 0, dead -1); higher = more abundant; growth selection in yeast, the domain comes from the species named
conditionDescription: Homo sapiens
quantity: abundance fitness
Lab note: record just the number, no unit beside it.

Here's what some known entries look like.
• IQIFEKGDFSGQMYETTEDCPSIMEQFHMREIHSCKVLEGVWIFYELPNYRGRQYLLDKKEYRKPIDWGAASPAVQSFRVI = 0.062
• IQIFEKGDFSGQMDETTEDCPSIMEQFHMREIHSCKVLEGVWIFYELPNYRGRQYLLDKKEYRKPIDWGAASPAVQSFRRI = -0.01
• IQIFEKGDFSGQMYETTEDCPSIMEQFHMREIHSCKVLEGVWIFYELPNYRGRQYLLDKKEYRKPIDWGAASPAVQLFRRI = -0.932
• IQIFEDGDFSGQMYETTEDCPSIMEQFHMREIHSCKVLEGVWIFYELPNYRGRQYLLDKKEYRKPIDWGAASPAVQSFRRI = 0.015
• IQIFEKGDFSGQMYETTEDCPSIMEQFHMREIHSCKVLEGVAIFYELPNYRGRQYLLDKKEYRKPIDWGAASPAVQSFRRI = -0.157

IN: Any idea what its abundance fitness is? The variant is IQIYEKGDFSGQMYETTEDCPSIMEQFHMREIHSCKVLEGVWIFYELPNYRGRQYLLDKKEYRKPIDWGAASPAVQSFRRI
OUT: -0.094

IN: Any idea what its abundance fitness is? The variant is IQIFEKGDFSGQMYETTEDCPSIMEQFHMREIHSCKVFEGVWIFYELPNYRGRQYLLDKKEYRKPIDWGAASPAVQSFRRI
OUT: -0.017

IN: Any idea what its abundance fitness is? The variant is IQIFEKGHFSGQMYETTEDCPSIMEQFHMREIHSCKVLEGVWIFYELPNYRGRQYLLDKKEYRKPIDWGAASPAVQSFRRI
OUT: 0.088

IN: Any idea what its abundance fitness is? The variant is IQIFEVGDFSGQMYETTEDCPSIMEQFHMREIHSCKVLEGVWIFYELPNYRGRQYLLDKKEYRKPIDWGAASPAVQSFRRI
OUT: 0.033

IN: Any idea what its abundance fitness is? The variant is IQIFEKGDFSGQMYETTEDCPSIMEQFHMREIHSCKVLEIVWIFYELPNYRGRQYLLDKKEYRKPIDWGAASPAVQSFRRI
OUT: -0.759

IN: Any idea what its abundance fitness is? The variant is IQIFEKGDFSGQMQETTEDCPSIMEQFHMREIHSCKVLEGVWIFYELPNYRGRQYLLDKKEYRKPIDWGAASPAVQSFRRI
OUT: 0.128

IN: Any idea what its abundance fitness is? The variant is IQIFEKGDMSGQMYETTEDCPSIMEQFHMREIHSCKVLEGVWIFYELPNYRGRQYLLDKKEYRKPIDWGAASPAVQSFRRI
OUT: 0.061

IN: Any idea what its abundance fitness is? The variant is IQIFEKGDFSGQMYETTEDCPSIMEQFHMREIHSCKVLEGVWIFYELPNYRGRQYLLDKKEYRHPIDWGAASPAVQSFRRI
OUT: -0.372

IN: Any idea what its abundance fitness is? The variant is IQIFEKGDFSGQMYETTEDCPSIMEQFHMREIHSCKVLEGVWIFYELPNYRGRQYLVDKKEYRKPIDWGAASPAVQSFRRI
OUT: 0.045
